src = the kinase profiling compilation of Christmann-Franck et al. (2016)

Molecular target: EPHB1 (human) (UniProt P54762)
Sequence (P54762 whole entry, looked up): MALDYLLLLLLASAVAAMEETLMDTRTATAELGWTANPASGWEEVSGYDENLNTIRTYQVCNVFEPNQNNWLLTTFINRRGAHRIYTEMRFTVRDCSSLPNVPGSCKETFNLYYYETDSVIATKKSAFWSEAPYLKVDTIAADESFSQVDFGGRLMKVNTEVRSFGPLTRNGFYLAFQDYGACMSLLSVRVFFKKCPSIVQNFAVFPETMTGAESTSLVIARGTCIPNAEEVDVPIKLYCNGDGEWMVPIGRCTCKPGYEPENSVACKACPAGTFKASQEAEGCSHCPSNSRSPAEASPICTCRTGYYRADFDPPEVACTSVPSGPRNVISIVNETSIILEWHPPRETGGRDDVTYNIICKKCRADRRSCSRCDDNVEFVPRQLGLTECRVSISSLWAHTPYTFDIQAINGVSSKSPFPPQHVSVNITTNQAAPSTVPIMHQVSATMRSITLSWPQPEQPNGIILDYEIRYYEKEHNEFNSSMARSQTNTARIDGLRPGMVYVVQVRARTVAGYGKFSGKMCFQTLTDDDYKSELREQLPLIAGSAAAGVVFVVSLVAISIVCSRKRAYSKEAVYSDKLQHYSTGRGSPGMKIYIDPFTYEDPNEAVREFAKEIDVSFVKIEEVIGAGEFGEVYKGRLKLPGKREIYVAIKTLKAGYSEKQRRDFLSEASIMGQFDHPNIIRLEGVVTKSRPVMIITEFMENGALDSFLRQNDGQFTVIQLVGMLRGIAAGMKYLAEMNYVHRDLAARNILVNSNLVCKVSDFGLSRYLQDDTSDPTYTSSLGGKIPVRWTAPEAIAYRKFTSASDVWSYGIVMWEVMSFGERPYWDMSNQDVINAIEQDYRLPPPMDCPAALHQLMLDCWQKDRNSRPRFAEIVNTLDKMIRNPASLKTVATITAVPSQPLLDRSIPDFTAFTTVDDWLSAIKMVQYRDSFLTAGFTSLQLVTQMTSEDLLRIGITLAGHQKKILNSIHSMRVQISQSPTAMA
Assay: radiometric filter-binding kinase assay, Kinase HotSpot
Details: compound 0.5 µM; ATP 10 µM
Give residual activity for every item shown.
Write the answer as a number in %, unit excluded.

Record c1ccc(-c2n[nH]c3c2oc2ccccc23)cc1 . Reported residual activity: 103

Sample Nc1ccc2ncnc(NCCc3ccc(Oc4ccccc4)cc3)c2c1 ; residual activity observed: 97.9

Reported residual activity for CC(C)N(CCC(=O)c1ccc2ccccc2c1)Cc1ccccc1 was 96.8

Sample O=C1NC(=O)c2c1c1c3ccccc3n3c1c1c2c2ccccc2n1C1CCC3O1 ; residual activity observed: 80.2

Form: compound = c1ccc(-c2n[nH]cc2-c2ccnc3ccccc23)nc1 ; residual activity = 98.7

// residual activity lookup, compound = O=S(=O)(c1cccc2cnccc12)N1CCCNCC1 , result: 106

// field: residual activity; key: COc1ccc2c(c[n+](C)c3c4cc5c(cc4ccc23)OCO5)c1OC ; value = 90.4

Given item Nc1ncnc2c1c(-c1ccc(Oc3ccccc3)cc1)cn2C1CCCC1 , the value recorded as its residual activity is 94.5

residual activity reported for this compound CO[C@H]1CC2CC[C@@H](C)[C@@](O)(O2)C(=O)C(=O)N2CCCC[C@H]2C(=O)OC([C@H](C)C[C@@H]2CC[C@@H](O)[C@H](OC)C2)CC(=O)[C@H](C)/C=C(\C)[C@@H](O)[C@@H](OC)C(=O)[C@H](C)C[C@H](C)/C=C/C=C/C=C/1C (some centres undefined) : 110

In plain terms, O=C1Nc2ccc(Cl)cc2/C1=C/c1cc(Cl)c(O)c(Cl)c1 has a documented residual activity of 91

Briefly, residual activity measured for O=C1NC(=O)C(c2cn(CCCn3ccnc3)c3ccccc23)=C1Nc1ccccc1 : 102

Reported residual activity for CC(=O)c1ccc(N2CCOCC2)cc1O was 103

For record CCOC(=O)c1c(C)[nH]c(/C=C2\C(=O)Nc3ccccc32)c1C the listed residual activity is 97.5

The compound O=c1cc(N2CCOCC2)oc2c1ccc1ccccc12 showed residual activity equal to 104

Note to self: residual activity recorded for CCN(CC)CCNC(=O)c1c(C)[nH]c(/C=C2\C(=O)Nc3ccc(Cl)cc32)c1C was 60.8

Recorded result, Cc1ccc(S(=O)(=O)/C=C/C#N)cc1 , residual activity: 100

Kindly note the recorded residual activity for CNc1cc2c(Nc3cccc(Br)c3)ncnc2cn1 , which is 90.2

residual activity reported for this compound Oc1cccc(-c2nc(N3CCOCC3)c3oc4ncccc4c3n2)c1 : 89.6

Summary for this compound, CCN(CC)CCNC(=O)c1c(C)[nH]c(/C=C2\C(=O)Nc3ccc(F)cc32)c1C : residual activity is 53.6

Just so you know, measured residual activity for CNC(=O)c1cc(Oc2ccc(NC(=O)Nc3ccc(Cl)c(C(F)(F)F)c3)cc2)ccn1 came out at 102

Reported residual activity ( O=C1NC(=O)/C(=C/c2ccc3c(c2)OC(F)(F)O3)S1 ) = 95.6

Sure, the documented residual activity for CCC(=O)Nc1ccc2ncnc(Nc3cccc(Br)c3)c2c1 is 93.3

Quick note, residual activity for COc1cc2ncnc(Nc3cccc(Cl)c3)c2cc1OC landed at 82.8

Recorded result, CC[n+]1c(/C=C/N(C)c2ccccc2)n(-c2ccccc2)c2ccc(-c3nc4ccccc4s3)cc21 , residual activity: 104

Lab note: Cc1ccc(Nc2nccc(N(C)c3ccc4c(C)n(C)nc4c3)n2)cc1S(N)(=O)=O gave residual activity of 92.2

Noted for O=C(Nc1cccc(Nc2nccc(Nc3cccc(C(F)(F)F)c3)n2)c1)C1CC1 : its residual activity reads 85.6

Data point: Cc1[nH]c(/C=C2\C(=O)Nc3ccc(S(=O)(=O)N(C)c4cccc(Cl)c4)cc32)c(C)c1C(=O)N1CCN(C)CC1 ; residual activity = 84.5

Field residual activity (entry COc1ccc(COc2ccc(Cc3cnc(N)nc3N)cc2OC)cc1 ) reads 103

Short answer for N#CC(C#N)=C(N)/C(C#N)=C/c1ccc(O)cc1 : residual activity was 88.3

Briefly, residual activity measured for N#C/C(=C(/N)Sc1ccc(N)cc1)c1ccccc1C(F)(F)F : 98.8

For this compound ( CC#CC(=O)Nc1cc2c(Nc3ccc(F)c(Cl)c3)ncnc2cn1 ), measured residual activity is 92

residual activity for Nc1cccc(-c2cc3c(Oc4cccc(O)c4)ncnc3[nH]2)c1 is 40

Form: compound = CCN(CC)C(=O)c1ccc(Nc2nc(OCC3CCCCC3)c3nc[nH]c3n2)cc1 ; residual activity = 75.4

So for CCCC(=O)Oc1ccc2[nH]c(C(=O)c3cc4ccccc4[nH]3)cc2c1 , the logged residual activity turned out to be 92.1

---

Molecular target: MYLK (human)
Experiment: radiometric filter-binding kinase assay, Kinase HotSpot
Details: compound 0.5 µM; ATP 10 µM
Field: residual activity. Provide a value for each of the compounds that follow.
The answer is to be given in %; state only the numeric part.

Record Nc1ccc2ncnc(NCCc3ccc(Oc4ccccc4)cc3)c2c1 , field residual activity: 98.5

The compound O=C1NC(=O)c2c1c1c3ccccc3n3c1c1c2c2ccccc2n1C1CCC3O1 showed residual activity equal to 4.01

Entry COc1ccc(COc2ccc(Cc3cnc(N)nc3N)cc2OC)cc1 , residual activity reported as 95.7

residual activity in this record for O=C1NC(=O)/C(=C/c2ccc3c(c2)OC(F)(F)O3)S1 : 99.4

Notebook: Nc1ncnc2c1c(-c1ccc(Oc3ccccc3)cc1)cn2C1CCCC1 , residual activity read as 98.4

compound Cc1ccc(Nc2nccc(N(C)c3ccc4c(C)n(C)nc4c3)n2)cc1S(N)(=O)=O , residual activity observed: 93

Value of measured residual activity for the entry c1ccc(-c2n[nH]c3c2oc2ccccc23)cc1 : 86.1

Recorded residual activity (compound c1ccc(-c2n[nH]cc2-c2ccnc3ccccc23)nc1 ): 105

// residual activity lookup, compound = CC[n+]1c(/C=C/N(C)c2ccccc2)n(-c2ccccc2)c2ccc(-c3nc4ccccc4s3)cc21 , result: 98.4

Per the record, CC(=O)c1ccc(N2CCOCC2)cc1O has residual activity of 91.1

Short answer for CCN(CC)CCNC(=O)c1c(C)[nH]c(/C=C2\C(=O)Nc3ccc(Cl)cc32)c1C : residual activity was 17.6

---

Biological target: RPS6KB2 (human) (UniProt Q9UBS0)
Sequence (Q9UBS0 whole entry, looked up): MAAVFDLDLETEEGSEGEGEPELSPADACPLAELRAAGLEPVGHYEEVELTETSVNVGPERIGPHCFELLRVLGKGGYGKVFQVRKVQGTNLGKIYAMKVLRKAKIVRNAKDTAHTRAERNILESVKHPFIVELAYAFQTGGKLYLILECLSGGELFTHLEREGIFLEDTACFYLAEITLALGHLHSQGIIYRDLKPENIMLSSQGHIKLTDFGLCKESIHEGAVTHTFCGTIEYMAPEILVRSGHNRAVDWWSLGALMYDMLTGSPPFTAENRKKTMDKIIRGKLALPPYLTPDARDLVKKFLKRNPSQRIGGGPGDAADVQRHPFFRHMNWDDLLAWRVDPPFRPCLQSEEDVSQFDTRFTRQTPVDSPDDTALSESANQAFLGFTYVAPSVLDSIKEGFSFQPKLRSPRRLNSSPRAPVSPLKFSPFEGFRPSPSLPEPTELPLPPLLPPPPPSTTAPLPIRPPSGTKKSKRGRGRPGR
Assay: radiometric filter-binding kinase assay, Kinase HotSpot
Details: compound 0.5 µM; ATP 10 µM
attribute measured: residual activity (%)
Form entry: value (%) — number only.

Entry CCOC(=O)c1c(C)[nH]c(/C=C2\C(=O)Nc3ccccc32)c1C — recorded residual activity = 103

Input O=S(=O)(c1cccc2cnccc12)N1CCCNCC1 . Output residual activity: 81.9

// recorded residual activity for c1ccc(-c2n[nH]cc2-c2ccnc3ccccc23)nc1 : 101

Record CCN(CC)CCNC(=O)c1c(C)[nH]c(/C=C2\C(=O)Nc3ccc(F)cc32)c1C . Reported residual activity: 113

# residual activity of N#C/C(=C(/N)Sc1ccc(N)cc1)c1ccccc1C(F)(F)F = 105

# residual activity of COc1ccc(COc2ccc(Cc3cnc(N)nc3N)cc2OC)cc1 = 100

---

Biological target: PRKCD (human)
Test: radiometric filter-binding kinase assay, Kinase HotSpot
Conditions: compound 0.5 µM; ATP 10 µM
Classify by measured residual activity: 1.0 if it is equal to or exceeds 90%, 0.0 if it is smaller.

# input Reported residual activity at or above 90%? Oc1cccc(-c2nc(N3CCOCC3)c3oc4ncccc4c3n2)c1
# output 1.0

# input Could you tell me if the measured residual activity of CC(C)N(CCC(=O)c1ccc2ccccc2c1)Cc1ccccc1 reaches 90% or more?
# output 1.0

# input # bool: residual activity of CC#CC(=O)Nc1cc2c(Nc3ccc(F)c(Cl)c3)ncnc2cn1 >= 90%
# output 1.0

# input Exam item: decide whether the reported residual activity for O=C1NC(=O)C(c2cn(CCCn3ccnc3)c3ccccc23)=C1Nc1ccccc1 is at least 90%.
# output 0.0

# input Textbook exercise: given the entry CNc1cc2c(Nc3cccc(Br)c3)ncnc2cn1 , state whether its residual activity is greater than or equal to 90%.
# output 1.0

# input Could you please find out whether CCN(CC)C(=O)c1ccc(Nc2nc(OCC3CCCCC3)c3nc[nH]c3n2)cc1 has residual activity that meets 90% or exceeds it?
# output 0.0

# input Evaluate c1ccc(-c2n[nH]c3c2oc2ccccc23)cc1 : residual activity at minimum 90%?
# output 1.0

# input Tell me whether residual activity is at least 90% here: O=C1NC(=O)/C(=C/c2ccc3c(c2)OC(F)(F)O3)S1
# output 1.0

# input Given the entry CCN(CC)CCNC(=O)c1c(C)[nH]c(/C=C2\C(=O)Nc3ccc(F)cc32)c1C , answer whether its residual activity meets or surpasses 90%.
# output 1.0

# input For this molecule, is measured residual activity 90% or higher? Cc1ccc(Nc2nccc(N(C)c3ccc4c(C)n(C)nc4c3)n2)cc1S(N)(=O)=O
# output 1.0

# input Could you verify whether the entry O=C1NC(=O)c2c1c1c3ccccc3n3c1c1c2c2ccccc2n1C1CCC3O1 shows residual activity of no less than 90%?
# output 0.0

# input Decide: residual activity of O=c1cc(N2CCOCC2)oc2c1ccc1ccccc12 >= 90%?
# output 1.0

# input # check: residual activity of Cc1ccc(S(=O)(=O)/C=C/C#N)cc1 is greater than or equal to 90%
# output 1.0

# input Reported residual activity at or above 90%? CNC(=O)c1cc(Oc2ccc(NC(=O)Nc3ccc(Cl)c(C(F)(F)F)c3)cc2)ccn1
# output 1.0

# input Confirm if residual activity reported for the molecule O=S(=O)(c1cccc2cnccc12)N1CCCNCC1 is 90% or above.
# output 0.0

# input Would you say Nc1ccc2ncnc(NCCc3ccc(Oc4ccccc4)cc3)c2c1 shows residual activity at minimum 90%?
# output 1.0

# input API: above_or_equal(metric=residual activity, cutoff=90%) for item COc1ccc2c(c[n+](C)c3c4cc5c(cc4ccc23)OCO5)c1OC
# output 1.0

# input Does the reported residual activity for Cc1[nH]c(/C=C2\C(=O)Nc3ccc(S(=O)(=O)N(C)c4cccc(Cl)c4)cc32)c(C)c1C(=O)N1CCN(C)CC1 fall at or above the 90% mark?
# output 1.0

# input Could you please find out whether CC(=O)c1ccc(N2CCOCC2)cc1O has residual activity that meets 90% or exceeds it?
# output 1.0
